target: Cbl (aa49-434) (Homo sapiens); construct: Cbl (aa49-434, in-house); made in house; experiment: Co-expressed Cbl with BirA biochemical assay (CBL/E2-Ub binding, HTRF); settings: 0.6 nM Cbl co-expressed with BirA, read-out: co-express CBL/E2-Ub-binding assay IC50
Sequence (P22681 49-434): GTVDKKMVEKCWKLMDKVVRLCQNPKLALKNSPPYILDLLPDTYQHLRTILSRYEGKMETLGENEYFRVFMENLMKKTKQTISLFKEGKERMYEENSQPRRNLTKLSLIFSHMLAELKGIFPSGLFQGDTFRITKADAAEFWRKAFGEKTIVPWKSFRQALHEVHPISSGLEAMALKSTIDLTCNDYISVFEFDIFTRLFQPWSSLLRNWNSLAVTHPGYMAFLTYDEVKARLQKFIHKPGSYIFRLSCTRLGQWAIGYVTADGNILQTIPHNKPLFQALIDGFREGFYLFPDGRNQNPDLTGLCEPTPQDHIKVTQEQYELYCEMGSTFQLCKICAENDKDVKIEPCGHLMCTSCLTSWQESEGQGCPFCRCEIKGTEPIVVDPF
parameter-measured: pIC50
Give only the number. pIC50 is defined as minus log10 of concentration in molar units.

Exercise: Looking for the measured pIC50 of `C[C@H](NCc1cc(C(=O)Nc2cccc([C@]3(c4nncn4C)C[C@@H](C)C3)c2)c2nccn2c1)C1CCCC1` , can you help?
Key: 8.51

Exercise: Looking for the measured pIC50 of `C[C@H](NCc1cc(C(=O)Nc2cccc([C@]3(c4nncn4C)C[C@@H](C)C3)c2)c2ncc(Cl)n2c1)C1CC1` , can you help?
Key: 8.59

Exercise: Looking for the measured pIC50 of `Cn1cnnc1[C@]1(c2cncc(NC(=O)c3cc(CNC4(C)CCC4)cn4c(Cl)cnc34)c2)C[C@H](C)C1` , can you help?
Key: 8.74

Exercise: Looking for the measured pIC50 of `Cc1c[nH]c2c(CNCC(C)C)cc(C(=O)Nc3cncc([C@]4(c5nncn5C)C[C@@H](C)C4)c3)nc12` , can you help?
Key: 8.12

Exercise: Looking for the measured pIC50 of `Cn1cnnc1[C@]1(c2cccc(NC(=O)c3cc(CNC4(C)CC4)cn4c(Cl)cnc34)c2)C[C@H](CC#N)C1` , can you help?
Key: 9.05

Exercise: Looking for the measured pIC50 of `C[C@H]1CCCN(Cc2cc(C(=O)Nc3cccc([C@]4(c5nncn5C)C[C@@H](CC#N)C4)c3)nc3c2NCC32CC2)C1` , can you help?
Key: 8.22

Exercise: Looking for the measured pIC50 of `Cn1cnnc1[C@]1(c2cccc(NC(=O)c3cc(CNC4(C)CCC4)c4c(n3)C3(CC3)CN4)c2)C[C@H](CC#N)C1` , can you help?
Key: 7.77
